This section presents compounds with their documented normalized growth values.
test.description: chemical genetic growth profiling, strain panel (AID 1159580);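 further: tested at 20 µM; growth read once vehicle control cultures reached saturation at 30 °C; 1 = growth at the plate median or of vehicle wells; lower values mean less growth of the strain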
settings: S. cerevisiae deletion strains, growth OD, locus YOL006C, strain TOP1, hits give low values
Out of some 5,500 compounds screened, about 2,000 (36%) were called active. About 18% were inconclusive and are not listed. Some of the results follow.

// below: answered compounds
compound	normalized growth
CC(=O)Oc1ccccc1C(=O)Oc1ccccc1C(=O)O	1 (inactive)
Cc1nnsc1C(=O)O/N=C1/CCSc2ccc(F)cc21	0.981 (inactive)
Cc1c(C(N)=O)cc([N+](=O)[O-])cc1[N+](=O)[O-]	0.984 (inactive)
O=C(Oc1ccccc1C(=O)O)c1ccccc1O	1.02 (inactive)
Cc1ccc(C(C)C)c(O)c1C(=O)O	0.977 (inactive)

Prompt line: If you can, please state the reported normalized growth value of `O=C1C(c2ccc(Br)cc2)=C(O)c2ccccc21` .
Response line: 1.01 (inactive)

Prompt line: Given the compound CCCCCC(O)C1C(=O)OC(C)C(O)/C=C/C=C/C=C/C=C/C=C(\C)C(O)CC(O)CC(O)CC(O)CC(O)CC(O)CC1O (centres undefined) , what is its reported normalized growth?
Response line: 1.01 (inactive)

Prompt line: Reported normalized growth for `CSc1nc(NC(C)C)nc(NC(C)C)n1` : what is it?
Response line: 1.02 (inactive)

Prompt line: Requested read-out: normalized growth. Entry: CC[C@H]1CN2CCC1C[C@@H]2[C@@H](O)c1ccnc2ccc(OC)cc12 (some centres undefined)
Response line: 1.02 (inactive)
